- protocolNotes: Specific activity of purified CHI, absorbance decrease at 384 nm, naringenin chalcone; note: unit not given here
- Type: biochemical
- conditionNotes: purified CHI in 50 mM PBS, 100 μM substrate, 25° C.
readoutName: Specific activity, Naringenin chalcone
Simply state the number, no unit and no words.

Here are 3 molecules together with their reported answers.
molecule="CHI11: Chalcone isomerase from Eubacterium sp., access no. SCK02381.1 (protein, Eubacterium sp) TKNMLGFEPMRSLIYVDVAKEDYRVKLENWLYKYHIPDSISQFGPYVSKYAFYQALPVPEGGERFGAIKMQLTEHYWLANPNNIAQFDHHKALTEYFPPDVLKWQGNLPDEDFQCENVEGDEARAVKGDASKGTVPFIFAFVPVWWEEDYKGAGRTIEDGPNYRWQMVIKFPDDAKDTGDKWLRDEFIPAFVECEETTRILSSKVIKEANGCEFDRVVEMWFEGPSAWKAAVGKAAKKVRRPAWFETEDFPYLTQSYGISSIFLSDIARSDNMTQYNGYVTMR" val=23.2
molecule="CHIera Mut1: Chalcone isomerase variant 1 from Eubacterium ramulus, genetically engineered (protein, listed as Eubacterium ramulus) MADFKFEPMRSLIYVDCVSEDYRPKLQRWIYKVHIPDSISKFEPYVTKYAFYPSFPIPPQGDRFGYARMQLTEHHWLVSELDPRLEINAIAETFPMDVLVWQGQIPAAAHTDAQIDSDGDAGRAAGKSNNAEGNPFIFAFLPMWWEKDLKGKGRTIEDGANYRFNMTIGFPEGVDKAEGEKWLFEKVVPILQAAPECTRVLASAVKKDINGCVMDWVLEIWFENQSGWYKVMVDDMKALEKPSWAQQDAFPFLKPYHNVCSAAVADYTPSNNLANYRGYITMR" val=32.6
molecule="CHI15: Chalcone isomerase from Clostridioides difficile, access no. WP_095917646.1 (protein, Clostridioides difficile) ADFEFKIMRSLIYVGLAKEEYRPKLMDWLYRHHIPDSISTFGPYCTKYAFYQAYPTPNEGERFGARKMQLTEHYWLVDEHMPEMANRIMTEYMPMDVLRWQGCIPDVENKRVHENVESGDAGRAVGGDNGCPPFIFAFVPINWEEDFRGKGRTVQDGPNYRWQFMIKYPDGISKEEGEKWFYDEVVPYFTNCCYVNRFVSSKIMINYGATAFDRVSELWFEGEEEWYKAVVEETKSFIKKPEWAQEEEFPYLKPQFNIASVFLGDIATMDAYSQYRGYIPMR" val=14.5

Query molecule follows.
Need Specific activity, Naringenin chalcone, item CHIera Mut5: Chalcone isomerase variant 5 from Eubacterium ramulus, genetically engineered (protein, listed as Eubacterium ramulus) MADFKFEPMRSLIYVDCVSEDYRPKLQRWIYKVHIPDSISKFEPYVTKYAFYPSFPIPPQGDRFGYARMQLTEHHWLVSPLDPRLEINAIAETFPMDVLVWQGQIPAAAHTDAQIDSDGDAGRAAKKSNNAEGNPFIFAFLPMWWEKDLKGKGRTIEDGANYRFNMTIGFPEGVDKAEGEKWLFEKVVPILQAAPECTRVLASAVKKDINGCVMDWVLEIWFENQSGWYKVMVDDMKALEKPSWAQQDAFPFLKPYHNVCSAAVADYTPSNNLANYRGYITMR
8.0
